# Study System: E. coli FtsZ (Escherichia coli, UniProt P0A9A6)
# Construct: made in house; host or cells: E. coli BL21(λDE3)
# Sequence (P0A9A6 whole entry): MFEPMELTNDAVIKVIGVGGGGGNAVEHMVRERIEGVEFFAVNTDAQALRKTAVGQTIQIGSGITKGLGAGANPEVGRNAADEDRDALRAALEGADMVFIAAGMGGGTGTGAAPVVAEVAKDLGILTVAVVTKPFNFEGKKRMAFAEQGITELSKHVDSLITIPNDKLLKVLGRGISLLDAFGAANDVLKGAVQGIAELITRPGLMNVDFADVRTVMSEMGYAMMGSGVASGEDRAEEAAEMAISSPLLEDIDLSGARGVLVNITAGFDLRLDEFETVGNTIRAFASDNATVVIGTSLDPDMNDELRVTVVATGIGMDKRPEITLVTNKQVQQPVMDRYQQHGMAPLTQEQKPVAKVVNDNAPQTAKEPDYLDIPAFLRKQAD
# Test Method Notes: FtsZ GTPase assay (malachite green)
# Type: biochemical
# Test Parameters: FIG. 27 legend; test not named, presumably FtsZ GTPase; read-out: IC50
Measured Endpoint: pIC50
// pIC50: -log10(molar conc.)

// fetch pIC50 given entry CC1(C)CC(=O)c2c(O)c(Cc3ccccc3O)c(O)c(Cc3ccccc3O)c2O1
4.68

// data source = patent US20090221568A1
